targetEntity: UniProtKB P10415
Sequence (P10415 whole entry): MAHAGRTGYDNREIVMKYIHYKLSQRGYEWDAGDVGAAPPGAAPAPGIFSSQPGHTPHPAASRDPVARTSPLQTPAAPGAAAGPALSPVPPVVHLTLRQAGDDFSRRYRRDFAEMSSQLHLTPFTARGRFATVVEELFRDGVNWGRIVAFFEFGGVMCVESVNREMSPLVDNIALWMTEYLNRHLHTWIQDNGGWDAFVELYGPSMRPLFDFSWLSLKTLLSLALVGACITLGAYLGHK
protocolNotes: Inhibition of Bcl-2 by the fluorescence polarisation technique
Type: binding
runParameters: fluorescence polarisation test; concentration that inhibits fluorescence polarisation by 50%; read-out: IC50 (nM) Bcl-2 FP
Counter-ions that a name gives are not always drawn.
observationType: IC50 (nM)

{"compound": "Cc1ccc(N(C(=O)c2cc(-c3cc4c(cc3C(=O)N3Cc5ccccc5C[C@H]3CN3CCOCC3)OCO4)n3c2CCCC3)c2ccc(O)cc2)cc1 [Example 2, hydrochloride]", "recordedResult": 20}
{"compound": "O=C(c1cc(-c2cc(Cl)ccc2C(=O)N2Cc3ccccc3C[C@H]2CN2CCOCC2)n2c1CCCC2)N(c1ccc(O)cc1)c1ccc2c(c1)CCN2 [Example 21, bis(hydrochloride)]", "recordedResult": 22}
{"compound": "Cc1ccc(N(C(=O)c2cc(-c3cc(F)ccc3C(=O)N3Cc4ccccc4C[C@H]3CN3CCOCC3)n3c2CCCC3)c2ccc(O)cc2)cc1F [Example 91, hydrochloride]", "recordedResult": 8}
{"compound": "O=C(c1cc(-c2cc(Cl)ccc2C(=O)N2Cc3ccccc3C[C@H]2CN2CCOCC2)n2c1CCCC2)N(c1ccc(O)cc1)c1cc(F)cc(F)c1 [Example 125, hydrochloride]", "recordedResult": 38}
{"compound": "Cn1ncc2cc(N(C(=O)c3cc(-c4cc5c(cc4C(=O)N4Cc6ccccc6C[C@H]4CN4CCOCC4)OCCO5)n4c3CCCC4)c3ccc(O)cc3)ccc21 [Example 39, hydrochloride]", "recordedResult": 16}
{"compound": "Cn1ncc2cc(N(C(=O)c3cc(-c4cc(Cl)ccc4C(=O)N4Cc5ccccc5C[C@H]4CN4CCOCC4)n4c3CCCC4)c3ccc(O)cc3)ccc21 [Example 42, hydrochloride]", "recordedResult": 13}
{"compound": "Cn1ccc2cc(N(C(=O)c3cc(-c4cc5c(cc4C(=O)N4Cc6ccccc6C[C@H]4CN4CCOCC4)OCO5)n4c3COCC4)c3ccc(O)cc3)ccc21", "recordedResult": 18}
{"compound": "CN1CCc2cc(N(C(=O)c3cc(-c4cc5c(cc4C(=O)N4Cc6ccccc6C[C@H]4CN4CCOCC4)OCO5)n4c3COCC4)c3ccc(O)cc3)ccc21 [Example 81, hydrochloride]", "recordedResult": 28}
{"compound": "CS(=O)(=O)N1CCN(C[C@@H]2Cc3ccccc3CN2C(=O)c2cc3c(cc2-c2cc(C(=O)N(c4ccccc4)c4ccc(O)cc4)c4n2CCCC4)OCO3)CC1 [Example 123, hydrochloride]", "recordedResult": 22}
{"compound": "CCN(CC)c1ccc(N(C(=O)c2cc(-c3cc(Cl)ccc3C(=O)N3Cc4ccccc4C[C@H]3CN3CCOCC3)n3c2CCCC3)c2ccc(O)cc2)cc1 [Example 28, hydrochloride]", "recordedResult": 25}
{"compound": "O=C(c1cc(-c2cc3c(cc2C(=O)N2Cc4ccccc4C[C@H]2CN2CCOCC2)OCO3)n2c1CCCC2)N(c1ccc(O)cc1)c1ccc2c(c1)CCN2 [Example 8, bis(hydrochloride)]", "recordedResult": 15}
{"compound": "O=C(c1cc(-c2cc(Cl)ccc2C(=O)N2Cc3ccccc3C[C@H]2CN2CCOCC2)n2c1CCCC2)N(c1ccc(O)cc1)c1ccc2c(c1)CCC2 [Example 29, hydrochloride]", "recordedResult": 35}
{"compound": "Cn1ccc2cc(N(C(=O)c3cc(-c4cc(Cl)ccc4C(=O)N4Cc5ccccc5C[C@H]4CN4CCOCC4)n4c3COCC4)c3ccc(O)cc3)ccc21 [Example 86, hydrochloride]", "recordedResult": 22}
{"compound": "CSc1ccc(N(C(=O)c2cc(-c3cc(Cl)ccc3C(=O)N3Cc4ccccc4C[C@H]3CN3CCOCC3)n3c2CCCC3)c2ccc(O)cc2)cc1C(F)(F)F [Example 54, hydrochloride]", "recordedResult": 180}
{"compound": "Cn1ccc2cc(N(C(=O)c3cc(-c4cc5c(cc4C(=O)N4Cc6ccccc6C[C@H]4CN4CCOCC4)OCCO5)n4ccccc34)c3ccc(O)cc3)ccc21 [Example 70, hydrochloride]", "recordedResult": 19}
{"compound": "O=C(c1cc(-c2cc3c(cc2C(=O)N2Cc4ccccc4C[C@H]2CN2CCOCC2)OCCO3)n2c1CCCC2)N(c1ccccc1)c1ccc(O)cc1 [Example 34, hydrochloride]", "recordedResult": 27}
{"compound": "Cn1ncc2cc(N(C(=O)c3cc(-c4cc(F)ccc4C(=O)N4Cc5ccccc5C[C@H]4CN4CCOCC4)n4c3CCCC4)c3ccc(O)cc3)ccc21 [Example 44, hydrochloride]", "recordedResult": 14}
{"compound": "COc1ccc(C(=O)N2Cc3ccccc3C[C@H]2CN2CCOCC2)c(-c2cc(C(=O)N(c3ccc(O)cc3)c3ccc(C)c(F)c3)c3n2CCCC3)c1 [Example 114, hydrochloride]", "recordedResult": 9}
{"compound": "CN1CCc2cc(N(C(=O)c3cc(-c4cc5c(cc4C(=O)N4Cc6ccccc6C[C@H]4CN4CCOCC4)OCO5)n4ccccc34)c3ccc(O)cc3)ccc21 [Example 61, hydrochloride]", "recordedResult": 22}
{"compound": "Cc1ccc(N(C(=O)c2cc(-c3cc(F)ccc3C(=O)N3Cc4ccccc4C[C@H]3CN3CCOCC3)n3c2COCC3)c2ccc(O)cc2)cc1F [Example 98, hydrochloride]", "recordedResult": 12}
{"compound": "Cn1ccc2cc(N(C(=O)c3cc(-c4cc(Cl)ccc4C(=O)N4Cc5ccccc5C[C@H]4CN4CCOCC4)n4c3CCCC4)c3ccc(O)cc3)cnc21", "recordedResult": 6}
